Test: absolute recovery over mixed-bed multilayer solid-phase extraction; higher = better recovery
Conditions: surface water; enrichment method: SPE

Compound: O=c1[nH]sc2ccccc12
absolute recovery [%]: 76.3
//
Compound: CCCCC(=O)N(Cc1ccc(-c2ccccc2-c2nnn[n-]2)cc1)C(C(=O)[O-])C(C)C (centres undefined)
absolute recovery [%]: 101
//
Compound: CCNc1nc(N)nc(Cl)n1
absolute recovery [%]: 93.3
//
Compound: COc1ccc(CCC(=O)c2c(O)cc(OC3OC(CO)C(O)C(O)C3OC3OC(C)C(O)C(O)C3O)cc2O)cc1O (centres undefined) [Neohesperidin-dihydrochalcon]
absolute recovery [%]: 78.7

* * *

Assay: absolute recovery over vacuum-assisted evaporative concentration; higher = better recovery
Details: wastewater effluent; enrichment method: VEC
As shown below, each of these compounds has a reported absolute recovery value.

Compound: COC(=O)N(OC)c1ccccc1COc1ccn(-c2ccc(Cl)cc2)n1
absolute recovery, %: 87.5
--
Compound: CC(=O)Nc1ccc(S(=O)(=O)[N-]c2nccs2)cc1
absolute recovery, %: 105
--
Compound: CC12C=CC(=O)C=C1CCC1C2C(O)CC2(C)C1CCC2(O)C(=O)CO (stereo unspecified)
absolute recovery, %: 104
--
Compound: CC(C)[NH2+]CC(O)COc1cccc2ccccc12 (stereo unspecified)
absolute recovery, %: 105
--
Compound: O=C(NC(=O)c1c(F)cccc1F)Nc1ccc(Cl)cc1
absolute recovery, %: 112
--
Compound: CC(=O)Nc1c(I)c(C(=O)[O-])c(I)c(C(=O)NCCO)c1I
absolute recovery, %: 103
--
Compound: N#Cc1nn(-c2c(Cl)cc(C(F)(F)F)cc2Cl)c(N)c1S(=O)C(F)(F)F (stereo unspecified)
absolute recovery, %: 103
--
Compound: COC=C(C(=O)OC)c1ccccc1COc1cccc(C(F)(F)F)n1
absolute recovery, %: 94.2
--
Compound: O=c1c(-c2ccc(O)cc2)coc2cc([O-])cc(O)c12
absolute recovery, %: 93
--
Compound: C[NH+](C)CCC=C1c2ccccc2COc2ccc(CC(=O)[O-])cc21
absolute recovery, %: 100
--
Compound: COC(=O)[N-]S(=O)(=O)c1ccc(N)cc1
absolute recovery, %: 95.8
--
Compound: C#CCOc1ccc(CCNC(=O)C(OCC#C)c2ccc(Cl)cc2)cc1OC (stereo unspecified)
absolute recovery, %: 110
--
Compound: CCC1(c2cccc(O)c2)CCCC[NH+](C)C1 (stereo unspecified)
absolute recovery, %: 110
--
Compound: CC(C)(C)C(O)C(Oc1ccc(Cl)cc1)n1cncn1 (stereo unspecified)
absolute recovery, %: 87.1
--
Compound: C[NH2+]C(CC(C)C)C(=O)NC1C(=O)NC(CC(N)=O)C(=O)NC2C(=O)NC3C(=O)NC(C(=O)NC(C(=O)[O-])c4cc(O)cc(O)c4-c4cc3ccc4O)C(O)c3ccc(c(Cl)c3)Oc3cc2cc(c3OC2OC(CO)C(O)C(O)C2OC2CC(C)([NH3+])C(O)C(C)O2)Oc2ccc(cc2Cl)C1O (stereo unspecified)
absolute recovery, %: 108
--
Compound: COc1cc([N-]S(=O)(=O)c2ccc(N)cc2)nc(OC)n1
absolute recovery, %: 104
--
Compound: C1=Cc2ccccc2Nc2ccccc21
absolute recovery, %: 22.9
--
Compound: Cc1ccc(C(C)NC(=O)C(NC(=O)OC(C)C)C(C)C)cc1 (stereo unspecified)
absolute recovery, %: 89.8
--
Compound: CON=C(C(=O)OC)c1ccccc1COc1ccccc1C
absolute recovery, %: 98.9
--
Compound: COC(=O)C1C2CC3c4[nH]c5cc(OC)ccc5c4CC[NH+]3CC2CC(OC(=O)c2cc(OC)c(OC)c(OC)c2)C1OC (stereo unspecified)
absolute recovery, %: 21.6
--
Compound: CCCCc1c(C)nc(NCC)nc1OS(=O)(=O)N(C)C [Bupirimate]
absolute recovery, %: 105
--
Compound: COC(=O)NC(C(=O)NC(Cc1ccccc1)C(O)CN(Cc1ccc(-c2ccccn2)cc1)NC(=O)C(NC(=O)OC)C(C)(C)C)C(C)(C)C (stereo unspecified)
absolute recovery, %: 116
--
Compound: Cc1cccc(C)c1N(Cn1cccn1)C(=O)C(=O)[O-]
absolute recovery, %: 108
--
Compound: COCCOCCOCCOCCOC
absolute recovery, %: 103
--
Compound: CCCOc1nc2ccc(I)cc2c(=O)n1CCC
absolute recovery, %: 84.4
--
Compound: C[NH2+]CCC(Oc1ccc(C(F)(F)F)cc1)c1ccccc1 (stereo unspecified)
absolute recovery, %: 91.1
--
Compound: CC(COc1ccccc1Cc1ccccc1)[NH+]1CCCCC1 (stereo unspecified)
absolute recovery, %: 117
--
Compound: C[NH+]1CCC23c4c5ccc(O)c4OC2C(O)C=CC3C1C5 (stereo unspecified)
absolute recovery, %: 104
--
Compound: C[NH2+]CC(c1ccc(OC)cc1)C1(O)CCCCC1 (stereo unspecified)
absolute recovery, %: 105
--
Compound: CC1(C)C(=O)Oc2ccc(OS(C)(=O)=O)cc21
absolute recovery, %: 101
--
Compound: CCNC(=O)C(C)OC(=O)Nc1ccccc1 (stereo unspecified)
absolute recovery, %: 118
--
Compound: CCCC(C)(COC(N)=O)COC(=O)NC(C)C (stereo unspecified)
absolute recovery, %: 104
--
Compound: CCOc1ccc(NC(=O)OC(C)C)cc1OCC
absolute recovery, %: 104
--
Compound: COCC(=O)Nc1c(I)c(C(=O)NCC(O)CO)c(I)c(C(=O)N(C)CC(O)CO)c1I (stereo unspecified)
absolute recovery, %: 108
--
Compound: CCCC(C)C1(CC)C(=O)N=C([S-])NC1=O (stereo unspecified)
absolute recovery, %: 77.5
--
Compound: C=CCOc1ccccc1OCC(O)C[NH2+]C(C)C (stereo unspecified)
absolute recovery, %: 105
